- System: MEF A1-2A-BIM cells, caspase 3/7 luminescence, 3 h
- method notes: inducers of caspase signal in A1-dependent MEFs – cell-based, luminescence, retest, A1 inhibitor project, dose response (AID 2765)
The source made the active and inactive calls.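 Rule for the calls: active = half-maximal concentration for the rise in caspase light signal at or below ten times the top tested dose; inconclusive = flat fit between 30% and 70% activity, or unreliable curve fit; inactive = the rest.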
Select the matching outcome among active, inactive

For CC1CC(C)CN(C(=O)CCCn2c(=S)[nH]c3ccccc3c2=O)C1 (stereo unspecified) , which call appears in the assay record? inactive

###

- Test system: MEF A1-2A-BIM cells, caspase 3/7 luminescence, 3 h
- method notes: inducers of caspase signal in A1-dependent MEFs – cell-based, luminescence, retest, A1 inhibitor project, dose response (AID 2765)
Calls of active or inactive are those of the source.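 How the source made its calls: active means half-maximal concentration for the rise in caspase light signal at or below ten times the top tested dose; inconclusive means flat fit between 30% and 70% activity, or unreliable curve fit; inactive means the rest.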
Your response should consist of one outcome taken from Y (active), N (inactive)

compound: Cc1ccc(S(=O)(=O)N2CCCC2)cc1C(=O)NCc1ccccc1CN1CCCC1
discrete label: N

compound: O=C1NC(=O)c2cc(NC(=O)C3CCCO3)ccc21 (stereo not given)
discrete label: N

compound: O=C(NC1CCCCC1)c1cccc2c1C(=O)c1ccc(-c3ccc(OC(F)(F)F)cc3)cc1S2(=O)=O
discrete label: Y

compound: CN(C)c1ccc(NC(=O)C2CCCN(S(=O)(=O)c3ccccc3)C2)cc1 (stereo not given)
discrete label: N

compound: CCCCn1c(N2CCCC2)nc2c1c(=O)[nH]c(=O)n2C
discrete label: N

compound: CCOc1ccc(NC(=O)CSc2nnc(Cc3cccn3C)n2-c2ccc(F)cc2)cc1
discrete label: N

compound: O=C(NCNC(=O)NC1C(=O)NC(=O)N1CO)NC1C(=O)NC(=O)N1CO (stereo not given)
discrete label: N

compound: CSc1nnc(-c2cc3c(-c4ccccc4)nn(C)c3s2)n1C
discrete label: N

compound: CCOc1cc2c(cc1OCC)C(c1ccccc1)N(c1ccccc1)C(=O)C2 (stereo not given)
discrete label: N

Turning now to a further record.
Assay result, entry NC(N)=N/N=C/c1cccc([N+](=O)[O-])c1O — outcome? N

###

- Test system: MEF A1-2A-BIM cells, caspase 3/7 luminescence, 3 h
- method notes: inducers of caspase signal in A1-dependent MEFs – cell-based, luminescence, retest, A1 inhibitor project, dose response (AID 2765)
The source made the active and inactive calls.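 The calls were made as follows: active = half-maximal concentration for the rise in caspase light signal at or below ten times the top tested dose; inconclusive = flat fit between 30% and 70% activity, or unreliable curve fit; inactive = the rest.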
measured endpoint: EC50

substance smiles: Cc1nccc2c1[nH]c1ccccc12
EC50: > 35 µM (inactive)

substance smiles: Cc1cc(C)cc(Cn2ncc(Cl)c(Cl)c2=O)c1
EC50: > 35 µM (inactive)

substance smiles: Cc1cc(Br)c(OCc2ccc(C(=O)N/N=C/c3ccc[nH]3)cc2)c(Br)c1
EC50: 33.8 µM

substance smiles: C=CCNC(=O)c1ccccc1NC(=O)COc1ccccc1
EC50: > 35 µM (inactive)

What does the data say about its EC50? Entry: CC(C)(C)C1=CC=C(C(C)(C)C)C(=O)C1=O > 35 µM (inactive)

Using the record for O=C(NCc1ccc(/C=N\NC(=O)C(=O)Nc2ccccc2Br)o1)C(=O)Nc1ccccc1 , report its EC50. > 35 µM (inactive)

###

- System: MEF A1-2A-BIM cells, caspase 3/7 luminescence, 3 h
- method notes: inducers of caspase signal in A1-dependent MEFs – cell-based, luminescence, retest, A1 inhibitor project, dose response (AID 2765)
Active and inactive are the calls of the source.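 The calls were made as follows: active = half-maximal concentration for the rise in caspase light signal at or below ten times the top tested dose; inconclusive = flat fit between 30% and 70% activity, or unreliable curve fit; inactive = the rest.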
Your answer must be one of the following: active, inactive

The following compounds have reported results that may help.
compound: CCOC(=O)/C=c1\s/c(=C\c2ccc(C#N)cc2)c(=O)n1CC(=O)Nc1cccc(C)c1C
discrete label: active

compound: Cc1ccc(/C=C/C(=O)Nc2sc(C)c(C)c2C(=O)OC(C)C)o1
discrete label: inactive

compound: C#CC(=O)N(c1cc(OC)ccc1OC)C(C(=O)NC1CCCC1)c1cccs1 (stereo not given)
discrete label: inactive

compound: COc1ccc(C(=O)N/C(=C/c2cccs2)C(=O)NN)cc1OC
discrete label: inactive

compound: NS(=O)(=O)c1ccc(N/N=C/c2cn(-c3ccccc3)nc2-c2ccccc2)c([N+](=O)[O-])c1
discrete label: active

compound: CC(=O)n1nc2nc(C)cc(C)c2c1N
discrete label: inactive

compound: Cc1ccc(NC(=O)Cn2ncc(Cl)c(Cl)c2=O)cc1S(=O)(=O)N1CCCCC1
discrete label: inactive

compound: O=C(Nc1ccc2oc(-c3ccccc3)nc2c1)c1ccccc1F
discrete label: inactive

# fetch the recorded call for CC(C)CC(=O)c1c[nH]c(C(=O)NCc2ccccc2)c1 here inactive

Hey, what did the test say about CCc1cccc(C)c1Nc1nc2ccccc2n2cnnc12 ? inactive
